System: RARalpha, RARbeta and RARgamma
Construct: fused on or other part: RARalpha was expressed as a fusion protein in E. coli
Assay: Nuclear RAR competition binding assay ([3H]-all-trans-RA, hydroxylapatite)
Set-up: species or system human RARalpha and RARgamma, murine RARbeta
Details: compared with 4-HPTTNPB; studies 'may be performed'

compound: CCCc1cc2c(cc1/C(C)=C/c1ccc(C(=O)Nc3ccc(O)cc3)cc1)C(C)(C)CCC2(C)C [Compound 12]
assay-target: RARalpha, RARbeta and RARgamma
competition binding to RARs: bind only very weakly
--
compound: C/C(=C\c1ccc(C(=O)Cc2ccc(O)cc2)cc1)c1ccc2c(c1)C(C)(C)CCC2(C)C [4-HBTTNPB]
assay-target: RARalpha, RARbeta and RARgamma
competition binding to RARs: bind only very weakly
